Assay: Drug recovery from 2D cultures or LAMPS chip effluent
Type: in vitro ADME, human
Conditions: human, 2D monolayer-cultured primary human hepatocytes
reported.endpoint: recovery at 28 µM

# recovery at 28 µM lookup, item Cc1c(C)c2c(c(C)c1O)CCC(C)(COc1ccc(CC3SC(=O)NC3=O)cc1)O2 (stereo not shown) [Troglitazone]
> 10%

---

Experiment: Drug recovery from 2D cultures or LAMPS chip effluent
Assay type: in vitro ADME, human
Details: human, 2D monolayer-cultured primary human hepatocytes
reported.endpoint: recovery at 1 day, 28 µM

# recovery at 1 day, 28 µM lookup, item Cc1c(C)c2c(c(C)c1O)CCC(C)(COc1ccc(CC3SC(=O)NC3=O)cc1)O2 (stereo not shown) [Troglitazone]
< 1%
